- measurement.description: Liver Microsome Stability Assay (human)
- test.conditions: human liver microsomes, with NADPH, 1.0 uM compound
reported.metric: Liver Microsome Stability (Multiple Species): Human - % Remaining after 30 min w/NADPH (%)

| molecule | observed.measurement |
| --- | --- |
| CC(C)c1ccc(/C=C/c2csc(NC(=O)c3cccn3Cc3ccnc(F)c3)n2)nc1 | 0.37 |
| Cc1cccnc1N1CCC[C@@H]1c1csc(NC(=O)c2cccn2Cc2ccncc2)n1 | 6.7 |
| O=C(Nc1nc(/C=C/c2cccc(=O)[nH]2)cs1)c1cccn1Cc1ccnc(F)c1 | 0.96 |
| CN(C)C(=O)Nc1ccc(N2CCC[C@@H]2c2csc(NC(=O)c3cccn3Cc3ccnc(F)c3)n2)cc1 | 53.1 |

----------
- measurement.description: Liver Microsome Stability Assay (monkey)
- test.conditions: monkey liver microsomes, with NADPH, 1.0 uM compound
Everything with Liver Microsome Stability (Multiple Species): Monkey - % Remaining after 30 min w/NADPH lower than 0.3% is False; everything else, including exactly 0.3%, is True.

| compound | class.label |
| --- | --- |
| CCc1cc(/C=C/c2csc(NC(=O)c3cccn3Cc3ccnc(F)c3)n2)no1 | False |
| CCOC(=O)C(C)n1cnc(/C=C/c2csc(NC(=O)c3cccn3Cc3ccnc(F)c3)n2)c1C (centres unmarked) | False |
| CN(C)c1ccc(N2CCC[C@@H]2c2csc(NC(=O)c3cccn3Cc3ccncc3)n2)cc1 | False |
| NC(=O)c1ccc(N2CCC[C@@H]2c2csc(NC(=O)c3cccn3Cc3ccnc(F)c3)n2)cc1 | True |
| CC1CCCn2cnc(/C=C/c3csc(NC(=O)c4cccn4Cc4ccnc(F)c4)n3)c21 (centres unmarked) | True |
| O=C(Nc1nc(/C=C/c2ncco2)cs1)c1cccn1Cc1ccncc1 | True |
| CN1C(=O)OCC1/C=C/c1csc(NC(=O)c2cccn2Cc2ccncc2)n1 (centres unmarked) | True |
| NC(=O)Cn1cnc(/C=C/c2csc(NC(=O)c3cccn3Cc3ccnc(F)c3)n2)c1 | True |

----------
- System: multiple myeloma cell line NCI-H929
- measurement.description: H929 Cell Viability Assay
- Format: cell-based, human
- test.conditions: Homo sapiens, NCI-H929, 48 h, NCI-H929 cells, Celltiter-Glo
- Method: The human multiple myeloma cell line NCI-H929 was cultured in Advanced RPMI 1640 media (Gibco®) supplemented with 6% fetal bovine serum, 2 mM Glutamine, and 1× Penicillin/Streptomycin. […] After 48 hours, Celltiter-Glo® (Promega) was added to each well and luciferase signal was quantified using Tecan Infinite M1000 Pro for cell viability determination. […]
Items are presented alongside their recorded log10(EC50).
reported.metric: log10(EC50) (log10 of the value in µM)

| compound | log10(EC50) |
| --- | --- |
| O=C(Nc1ccc(N2CCC[C@@H]2c2csc(NC(=O)c3cccn3Cc3ccnc(F)c3)n2)cc1)O[C@@H]1CCOC1 [Compound A171] | -0.80 |
| CC(=O)N1CCC[C@H](Oc2ccc(N3CCC[C@@H]3c3csc(NC(=O)c4cccn4Cc4ccnc(F)c4)n3)cc2)C1 [Compound A84] | 0.02 |
| CC(=O)N1CCC(Oc2ccc(N3CCC[C@@H]3c3csc(NC(=O)c4cccn4CC4CCOCC4)n3)cc2)CC1 [Compound C103] | 1.15 |
| CNC(=O)N1CCC(Oc2ccc(N3CCC[C@@H]3c3csc(NC(=O)c4cccn4Cc4ccnc(F)c4)n3)cc2)CC1 [Compound A136] | 0.38 |
| CNS(=O)(=O)N1CC(Oc2ccc(N3CCC[C@@H]3c3csc(NC(=O)c4cccn4Cc4ccnc(F)c4)n3)cc2)C1 [Compound A151] | 0.14 |
| O=C(Nc1ccc(N2CCC[C@@H]2c2csc(NC(=O)c3cccn3Cc3ccnc(F)c3)n2)cc1)O[C@H]1CCOC1 [Compound A174] | -1.11 |
| COC(=O)Nc1ccc(N2CCC[C@@H]2c2csc(NC(=O)c3cc(C)cn3Cc3ccnc(F)c3)n2)nc1 [Compound A180] | -0.15 |
| CN1CCC(Oc2ccc(N3CCC[C@@H]3c3csc(NC(=O)c4cccn4Cc4ccncc4)n3)cc2)CC1 [Compound A8] | 0.30 |
| Cc1cn(C(C)C)nc1/C=C/c1csc(NC(=O)c2cccn2Cc2ccnc(F)c2)n1 [Compound B83] | 1.05 |
| O=C(Nc1nc([C@H]2CCCN2c2ccc(-c3ncco3)cc2)cs1)c1cccn1Cc1ccncc1 [Compound A9] | -0.28 |
| NC(=O)N1CCC(Oc2ccc(N3CCC[C@@H]3c3csc(NC(=O)c4cccn4Cc4ccnc(F)c4)n3)cn2)CC1 [Compound A159] | 0.21 |
| COCCCCn1cccc1C(=O)Nc1nc([C@H]2CCCN2c2ccccc2)cs1 [Compound C23] | 1.38 |
| CC(=O)Nc1c(F)cc(N2CCC[C@@H]2c2csc(NC(=O)c3cccn3Cc3ccnc(F)c3)n2)cc1F [Compound A99] | 0.72 |
| O=C(Nc1nc([C@H]2CCCN2c2ccc(OC3CS(=O)(=O)C3)cc2)cs1)c1cccn1Cc1ccnc(F)c1 [Compound A158] | 0.52 |
| N#Cc1cc(C(=O)Nc2nc([C@H]3CCCN3c3ccccc3)cs2)n(Cc2ccnc(F)c2)c1 [Compound A149] | 0.40 |
| CCC(CC#N)Cn1cccc1C(=O)Nc1nc([C@H]2CCCN2c2ccccc2)cs1 (some centres unmarked) [Compound C113] | 1.36 |
| O=C(Nc1ccc(N2CCC[C@@H]2c2csc(NC(=O)c3cccn3Cc3ccnc(F)c3)n2)cc1)OC1COC1 [Compound A177] | -1.79 |
| O=C(Nc1nc([C@H]2CCCN2c2ccc(C3(O)CCC3)cc2)cs1)c1cccn1Cc1ccnc(F)c1 [Compound A114] | 0.01 |
| Cc1c(/C=C/c2csc(NC(=O)c3cccn3Cc3ccncc3)n2)ncn1C(C)C [Compound B58] | 1.19 |
| CC(C)OC(=O)Nc1ccc(N2CCC[C@@H]2c2csc(NC(=O)c3cccn3Cc3ccnc(F)c3)n2)cc1 [Compound A146] | -1.41 |
| CS(=O)(=O)N1CCC(Oc2ccc(N3CCC[C@@H]3c3csc(NC(=O)c4cccn4Cc4ccnc(F)c4)n3)cc2)CC1 [Compound A128] | -0.07 |
| C[C@@H](O)c1ccc(N2CCC[C@@H]2c2csc(NC(=O)c3cccn3Cc3ccnc(F)c3)n2)cc1 [Compound A111] | -0.37 |
| COc1ccc(O[C@H]2CCC[C@H](c3csc(NC(=O)c4cccn4Cc4ccncc4)n3)C2)nc1 [Compound E41] | 0.89 |
